System: SNB-75 CNS
Assay Explanation: NCI tumour cell line growth inhibition, 48 h; in the data active = GI50 below about 0.43 µM; inactive = the rest
// one of True = active, False = inactive, no free text

Record request — test call for CN(C)c1cccc2[nH]c(-c3[nH]ncc3Nc3ccnc(N)n3)nc12
True

Now consider C[C@]12CC[C@H]3[C@@H](CC=C4C[C@@H](O)CC[C@@]43C)[C@@H]1C/C(=C\c1cccc(OCCN3CCOCC3)c1)[C@@H]2O and answer again.
False

Now consider COc1cc2c(cc1OCCCCCOc1cc(-c3ccc(F)cc3)nc(C)n1)N=C[C@@H]1CCCN1C2=O and answer again.
False

Now consider COc1nccc(-c2c(-c3ccc(F)cc3)ncn2C2CCC(O)CC2)n1 (stereo not drawn) and answer again.
False

Now consider C=C1C(=O)O[C@H]2[C@H]1CC/C(COC(=O)NCCc1ccc(OC)cc1)=C\CC[C@@]1(C)O[C@@H]21 and answer again.
False

Now consider CC(=O)OCC(=O)[C@@]1(O)[C@H](C)C[C@H]2[C@@H]3C=C(C)C4=Cc5c(cnn5-c5ccc(F)cc5)C[C@]4(C)[C@H]3[C@@H](O)C[C@@]21C and answer again.
False

Now consider O=[N+]([O-])c1cccc(-c2nc3sccn3c2-c2ccnc(NCCCNS(=O)(=O)c3ccc(F)cc3)n2)c1 and answer again.
False

Now consider FC(F)(F)c1ccc2c(c1)N(CCCN1CCN(C3CC3)CC1)c1ccccc1S2 and answer again.
False
